Data origin: patent US12065428B2

Each entry below carries its recorded CC50 at 6 days.
test-summary: Cytotoxicity plates without OC43 virus in HeLa cells
Format: cell-based
condition-details: human, HeLa cells (uninfected), class symbols

{"compound": "Cn1c(C(=O)N2CCC3(CC3)C[C@H]2C(=O)N[C@@H](C[C@@H]2CCNC2=O)C(=O)C(=O)NC2CC2)nc2ccccc21 [Example 4]", "reading": "≥ 100 µM"}
{"compound": "O=C(NC1CC1)C(=O)[C@H](C[C@@H]1CCNC1=O)NC(=O)[C@@H]1CC2(CCN1C(=O)[C@H]1CCCc3ccccc31)CC2 [Compound 33]", "reading": "≥ 100 µM"}
{"compound": "O=C(NC1CC1)C(=O)[C@H](C[C@@H]1CCNC1=O)NC(=O)[C@@H]1CC2(CCN1C(=O)[C@@H]1C[C@]13CCCc1ccccc13)CC2 (relative stereo) [Compound 34B]", "reading": "10 to 100 µM"}
{"compound": "O=C(NC1CC1)C(=O)[C@H](C[C@@H]1CCNC1=O)NC(=O)[C@@H]1CC2(CCN1C(=O)c1nc(-c3ccccc3)cs1)CC2 [Example 3]", "reading": "10 to 100 µM"}
{"compound": "Cn1c(C(=O)N2CCC3(CC3)C[C@H]2C(=O)N[C@H](C#N)C[C@@H]2CCNC2=O)cc2ccccc21 [Example 5]", "reading": "≥ 100 µM"}

Kindly consider the entry below.
Please give measured CC50 at 6 days of the following entry: Cc1ccc2cc(C(=O)N3CCC4(CC4)C[C@H]3C(=O)N[C@@H](C[C@@H]3CCNC3=O)C(=O)C(=O)NC3CC3)n(C)c2c1 [Compound 30] ≥ 100 µM

###

target: HRV3C (Human rhinovirus 14)
Construct: SARS-Cov-2 3CLpro and HRV3C Duplex Assay
Sequence (P03303 1538-1719): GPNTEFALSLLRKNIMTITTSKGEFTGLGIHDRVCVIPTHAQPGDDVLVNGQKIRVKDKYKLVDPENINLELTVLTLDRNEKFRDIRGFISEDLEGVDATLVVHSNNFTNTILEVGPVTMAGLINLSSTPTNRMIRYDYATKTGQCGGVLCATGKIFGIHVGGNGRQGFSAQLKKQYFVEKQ
test-summary: biochemical
condition-details: read-out: HRV IC50
pIC50: −log10 of the molar value.
Each entry below carries its recorded pIC50.

Please give measured pIC50 of the following entry: O=C(NC1CC1)C(=O)[C@H](C[C@@H]1CCNC1=O)NC(=O)[C@@H]1CC2(CCN1C(=O)c1nc(-c3ccccc3Cl)cs1)CC2 < 5.00

Please give measured pIC50 of the following entry: CC(C)(C)[C@H](NC(=O)C(F)(F)F)C(=O)N1[C@H]2C[C@@H]([C@H]1C(=O)N[C@H](C#N)C[C@@H]1CCNC1=O)C1(CC1)C2 < 5.00

Please give measured pIC50 of the following entry: COc1ccccc1-c1csc(C(=O)N2CCC3(CC3)C[C@H]2C(=O)N[C@@H](C[C@@H]2CCNC2=O)C(=O)C(=O)NC2CC2)n1 < 5.00

###

Target or system human cathepsin L (Homo sapiens): recorded pIC50 listed per item.
pIC50: −log10 of the molar value.

Some entries whose results are on file:
{"compound": "COc1ccc(-c2csc(C(=O)N3CCC4(CC4)C[C@H]3C(=O)N[C@@H](C[C@@H]3CCNC3=O)C(=O)C(=O)NC3CC3)n2)cc1 [Compound 37]", "pIC50": "≤ 5.00"}
{"compound": "O=C(NC1CC1)C(=O)[C@H](C[C@@H]1CCNC1=O)NC(=O)[C@@H]1CC2(CCN1C(=O)[C@@H]1C[C@@H]1c1ccccc1)CC2 [Compound 47]", "pIC50": "≤ 5.00"}

Kindly consider the entry below.
State recorded pIC50 with human cathepsin L (Homo sapiens), entry O=C(NC1CC1)C(=O)[C@H](C[C@@H]1CCNC1=O)NC(=O)[C@@H]1CC2(CCN1C(=O)c1ccc3c(c1)OCO3)CC2 [Compound 16] , no comment. ≤ 5.00
